Listed below: GI50 values for each entry.
- Test system: Hs-578T
- method_notes: NCI tumour cell line growth inhibition, 48 h
The source made the active and inactive calls. Rule as the data show it: active = GI50 up to about 1.1 µM and inactive = higher.

compound	GI50
O=S(=O)(O)c1ccc2c(/N=N/c3c(O)ccc4ccccc34)cccc2c1	> 100 µM (inactive)
N#Cc1c2c(c(Nc3ccc(Cl)cc3)n3c1nc1ccccc13)CCCC2	26.2 µM (inactive)
CCCCOC(=O)N[C@H]1CCc2cc(OC)c(OC)c(OC)c2-c2ccc(SC)c(=O)cc21	< 0.01 µM (active)
O=C(/C=C\c1ccsc1)c1ccccc1	5.35 µM (inactive)
CCOC(=O)C(NC(=O)CC)(Nc1ccc(F)cc1F)C(F)(F)F (configuration not stated)	18.2 µM (inactive)
O=C(/C=C/c1ccc(OCc2ccccc2)cc1)NCc1ccc(C(=O)NCCc2ccccc2)cc1	> 100 µM (inactive)
CCOC(=O)C1(C(=O)OCC)CN(CC)CN(c2ccccc2)C1	> 100 µM (inactive)
O=c1[nH]cnc2c1ncn2C1SC(CO)C(O)C1O (configuration not stated)	> 100 µM (inactive)
O=C1c2ccccc2C(=O)c2c(NC(=O)C3CC3)ccc(NC(=O)C3CC3)c21	> 100 µM (inactive)
O=C1CSC(c2ccccc2O)N1c1ccc(Oc2ccc(Cl)cc2)c(Cl)c1 (configuration not stated)	14.9 µM (inactive)
COc1ccc(NC(=O)CC(=O)N2N=C(N3CCCCC3)CC2c2ccccc2)cc1 (configuration not stated)	> 100 µM (inactive)
Clc1nc(-c2ccccc2)nc(Cl)c1Cl	15 µM (inactive)
CN1C(=O)C(/C=N/NC(=O)c2cccnc2)C(N)N(C)C1=O (configuration not stated)	> 100 µM (inactive)
COc1ccc2c(C)cc(N/N=C/c3sccc3C)nc2c1	12.5 µM (inactive)
NC(CCC(=O)c1ccccn1)C(=O)O (configuration not stated)	> 100 µM (inactive)
CN(COC(=O)c1ccccc1)c1nc(N(C)COC(=O)c2ccccc2)nc(N(C)COC(=O)c2ccccc2)n1	22.4 µM (inactive)
CN1CCc2c3n(c4cc(Br)ccc24)[C@H](O)CCCC31 (some centres not stated)	2.15 µM (inactive)
N#CC(NNC(=O)Cc1ccccc1)c1ccccc1O (configuration not stated)	56.2 µM (inactive)
COc1ccc2c(c1)nc1n2C(c2c(F)cccc2Cl)SC1 (configuration not stated)	1.69 µM (inactive)
O=C1CCC(Cc2ccc(Cl)cc2Cl)C(=O)N1 (configuration not stated)	81.5 µM (inactive)
CN(C)Cc1cc(/N=N/c2ccc(Cl)c(Cl)c2)ccc1O	6.03 µM (inactive)
O=c1[nH]c(Nc2cccc(C(F)(F)F)c2)nc2[nH]cnc12	75.7 µM (inactive)
C=C(Br)C[N+]12CN3CN(CN(C3)C1)C2	> 100 µM (inactive)
CC1=CC(C)(C)Nc2ccc(CSc3ccccc3)cc21	38.3 µM (inactive)
Cc1cc(C)c(S(=O)(=O)N2CCCN(S(=O)(=O)c3c(C)cc(C)cc3C)OCCCON(S(=O)(=O)c3c(C)cc(C)cc3C)CCCN(S(=O)(=O)c3c(C)cc(C)cc3C)OCCCO2)c(C)c1	51.8 µM (inactive)
COc1ccc(C2C(C#N)=C(S)N(C3OC(COC(C)=O)C(OC(C)=O)C(OC(C)=O)C3OC(C)=O)C(C)=C2C(C)=O)cc1 (configuration not stated)	59.3 µM (inactive)
CCn1nc(-c2ccccc2)c2c1N(C)c1ccccc1-n1c(-c3ccccc3)nnc1-2	19 µM (inactive)
COc1cc2c3c(c4ccc(OC)c(OC)c4c2cc1OC)CN1CCC[C@@H]1C3	0.0182 µM (active)
CC1CC(NN(C)C)C2(C(N)=O)C(N)=NC(=O)C12C#N (configuration not stated)	> 100 µM (inactive)
COc1cc(C=C(c2ccc(N(C)C)cc2)c2ccc(N(C)C)cc2)c2ccccc2c1OC	43.2 µM (inactive)
CN(C)C/C=C(/c1ccc(Br)cc1)c1cccnc1	48 µM (inactive)
C[C@@H](c1ccccc1)n1c(N)c(C#N)c2ccc([N+](=O)[O-])cc2c1=O	18.2 µM (inactive)
COc1ccc2c(c1)N=C1CSC(c3ccccc3Cl)N1C2 (configuration not stated)	45.2 µM (inactive)
CC12CC(=O)Nc3ccccc3N1C(c1ccccc1)=NO2 (configuration not stated)	> 100 µM (inactive)
O=C(c1ccc([N+](=O)[O-])cc1)C(Br)C(Br)c1ccnc2ccccc12 (configuration not stated)	6.15 µM (inactive)
COC(=O)CCC(=O)c1ccc2c(c1)CC1(C2)Cc2ccc(C(=O)CCC(=O)OC)cc2C1	> 100 µM (inactive)
c1ccc(/N=C2/SC3=Nc4cccc5cccc(c45)N3/C2=N/c2ccccc2)cc1	> 100 µM (inactive)
O=c1c2ccccc2nc2n1NC(c1c(Cl)cccc1Cl)N2c1cccc(Cl)c1 (configuration not stated)	7.55 µM (inactive)
Cn1c(COC(=O)Nc2ccccc2)c(COC(=O)Nc2ccccc2)c2ccc3cc(Cl)c(Cl)cc3c21	5.73 µM (inactive)
CCOC(=O)c1sc2c(c1OC(=O)c1cc(OC)c(OC)c(OC)c1)c(=O)n(-c1ccccc1)c(=S)n2-c1ccccc1	51.2 µM (inactive)
CC(C)(C)c1cc(-c2ccc(-c3cc(C(C)(C)C)c(O)c(C(C)(C)C)c3)cc2)cc(C(C)(C)C)c1O	> 10 µM (inactive)
Cc1ccc2c(c1)C(=O)C1(Cc3ccccc3C1=O)C2 (configuration not stated)	> 100 µM (inactive)

* * *

Listed below: GI50 values for each entry.
- Tested on: HT-29
- method_notes: NCI tumour cell line growth inhibition, 48 h
Active and inactive are the calls of the source. Rule as the data show it: active = GI50 up to about 1.1 µM and inactive = higher.
property_measured: GI50

                                    compound  property_measured                  val
 0  O=C(c1ccc([N+](=O)[O-])cc1)C(Br)C(Br)c1ccnc2ccccc12 (stereo unspecified)               GI50    2.9 µM (inactive)
 1  CC(C)C1CC(CO)(CNc2nc(N)nc(Cl)c2/C=N\O)C1 (stereo unspecified)               GI50   4.34 µM (inactive)
 2  Cc1ccc(NC(=S)NNC(=O)c2cc(-c3ccccc3)nc3ccccc23)cc1               GI50     24 µM (inactive)
 3  CC(=O)OCC1OC(n2cc(I)c(=O)[nH]c2=O)C(OC(C)=O)C(OC(C)=O)C1OC(C)=O (stereo unspecified)               GI50  > 100 µM (inactive)
 4               Clc1nc(-c2ccccc2)nc(Cl)c1Cl               GI50   9.89 µM (inactive)
 5                    C#CCOCn1cnc2c(S)ncnc21               GI50  > 100 µM (inactive)
 6  O=C(Cc1ccccc1)NN1C(=O)C(Cl)C1c1cc(Br)ccc1O (stereo unspecified)               GI50   7.64 µM (inactive)
 7  COC(=O)[C@@H](C)[C@H]1CC[C@@](C)(CCC2=C(C)CC3C=C(C)CCC3C2(C)C)OO1 (stereo partly specified)               GI50   1.42 µM (inactive)
 8            Nc1ccc(/C=C/c2ccnc3ccccc23)cc1               GI50   23.4 µM (inactive)
 9       COc1ccc2c(C)cc(N/N=C/c3sccc3C)nc2c1               GI50   2.81 µM (inactive)
10  N#Cc1cnc(N)nc1NCC1(CO)CC(CCc2ccccc2)C1 (stereo unspecified)               GI50  > 100 µM (inactive)

* * *

- System: HCT-116
- method_notes: NCI tumour cell line growth inhibition, 48 h
Activity calls are given as the source filed them. No stated cut-off is given here; in the data, active = GI50 up to about 1.1 µM and inactive = higher.
Listed below: GI50 values for each entry.
property_measured: GI50

                                    compound   target                  val
 0  COc1ccc(NC(=S)N/N=C(\C)c2nc3cccnc3[nH]2)cc1  HCT-116   3.02 µM (inactive)
 1  CCN(CC)CCCCC1CCN(CC(=O)N2c3ccccc3NC(=O)CC2C)CC1 (stereo unspecified)  HCT-116  > 100 µM (inactive)
 2  COC(=O)C(Cc1ccccc1)NP(=O)(O)OCC1OC(n2cc(Br)c(=O)[nH]c2=O)CC1O (stereo unspecified)  HCT-116  > 100 µM (inactive)
 3  CSC1(Cc2ccccn2)C(=O)Nc2cccc([N+](=O)[O-])c21 (stereo unspecified)  HCT-116   79.1 µM (inactive)
 4  CC1CC(NN(C)C)C2(C(N)=O)C(N)=NC(=O)C12C#N (stereo unspecified)  HCT-116  > 100 µM (inactive)
 5  O=C1CC2CCCC23CC2(CCN13)OCCO2 (stereo unspecified)  HCT-116  > 100 µM (inactive)
 6  Cc1ccc2c(c1)C(=O)C1(Cc3ccccc3C1=O)C2 (stereo unspecified)  HCT-116  > 100 µM (inactive)
 7  COc1ccc2c(c1)N=C1CSC(c3ccccc3Cl)N1C2 (stereo unspecified)  HCT-116   3.92 µM (inactive)
 8  CNC(=S)NNc1ncnc2c1c(-c1ccc(Cl)cc1)cn2-c1ccc(C)cc1  HCT-116   4.57 µM (inactive)
 9  COc1ccc(C2=Nc3c(nc(OC)[nH]c3=O)NC(c3ccccc3)C2)cc1 (stereo unspecified)  HCT-116   28.4 µM (inactive)
10  Cc1ccc(S(=O)(=O)Nn2c(S)c(C#N)c(-c3ccc(Cl)cc3)c(C#N)c2=O)cc1  HCT-116   28.4 µM (inactive)
